Biological target: FL hMALT1 enzyme (Homo sapiens, UniProt Q9UDY8);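 also: Cell-free protease assay: enzyme preincubated with compound 30 min at room temperature, then cleavage of fluorogenic Ac-LVSR-AMC substrate (100 µM) tracked by fluorescence (ex 360/em 460 nm)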
Sequence (Q9UDY8 whole entry): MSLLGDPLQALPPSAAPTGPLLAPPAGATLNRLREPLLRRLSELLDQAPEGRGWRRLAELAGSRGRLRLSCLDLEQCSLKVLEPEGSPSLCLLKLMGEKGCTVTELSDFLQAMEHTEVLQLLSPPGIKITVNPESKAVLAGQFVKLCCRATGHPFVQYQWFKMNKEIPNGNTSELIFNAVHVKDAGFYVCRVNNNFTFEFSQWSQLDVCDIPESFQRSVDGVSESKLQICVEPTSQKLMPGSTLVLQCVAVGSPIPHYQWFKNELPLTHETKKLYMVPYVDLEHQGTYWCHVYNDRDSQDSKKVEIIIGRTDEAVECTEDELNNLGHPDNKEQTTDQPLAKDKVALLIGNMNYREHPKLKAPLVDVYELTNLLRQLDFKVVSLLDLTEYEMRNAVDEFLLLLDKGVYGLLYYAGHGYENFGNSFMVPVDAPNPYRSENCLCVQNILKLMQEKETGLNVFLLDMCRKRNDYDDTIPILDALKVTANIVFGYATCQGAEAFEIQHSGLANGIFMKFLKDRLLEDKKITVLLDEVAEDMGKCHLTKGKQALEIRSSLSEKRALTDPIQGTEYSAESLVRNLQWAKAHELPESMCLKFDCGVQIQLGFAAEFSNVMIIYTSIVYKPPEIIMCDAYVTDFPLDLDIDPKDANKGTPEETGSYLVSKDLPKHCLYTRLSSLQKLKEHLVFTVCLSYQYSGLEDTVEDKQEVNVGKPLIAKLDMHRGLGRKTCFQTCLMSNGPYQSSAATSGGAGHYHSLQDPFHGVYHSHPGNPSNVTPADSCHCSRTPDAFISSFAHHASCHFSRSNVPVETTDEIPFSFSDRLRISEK
Assay: biochemical
pIC50: −log10 of the molar value.
Readings of pIC50 for the listed molecules
parameter_measured: pIC50

{"molecule": "CN(C(=O)CCN1CCCC1=O)[C@@H](c1ccc(NC2Cc3ccccc3C2(C)C)cc1)C(F)(F)F (single isomer, unassigned) [Example 48]", "numeric_value": 7.77}
{"molecule": "CN(C(=O)C1CCS(=O)(=O)CC1)[C@@H](c1ccc(NC2Cc3ccc(Cl)cc3C2(C)C)cc1)C(F)(F)F (single isomer, unassigned) [Example 150]", "numeric_value": 7.18}
{"molecule": "CN(C(=O)C1CCCNC1)[C@@H](c1ccc(NC2Cc3ccccc3C2(C)C)cn1)C(F)(F)F (single isomer, unassigned) [Example 127]", "numeric_value": 6.52}
{"molecule": "CN(C(=O)CN1CC(=O)NC1=O)[C@@H](c1ccc(NC2Cc3ccccc3C2(C)C)cc1)C(F)(F)F (single isomer, unassigned) [Example 66]", "numeric_value": 7.70}
{"molecule": "CN(C(=O)CN1CCCS1(=O)=O)[C@@H](c1ccc(NC2Cc3ccc(Cl)c(F)c3C2)cn1)C(F)(F)F (single isomer, unassigned) [Example 361]", "numeric_value": 5.14}
{"molecule": "CN(C(=O)C1CCS(=O)(=O)CC1)[C@@H](c1ccc(NC2Cc3cccc(C(F)(F)F)c3C2)cn1)C(F)(F)F (single isomer, unassigned) [Example 190]", "numeric_value": 5.48}

###

Readings of pIC50 for the listed molecules
Target: MALT1-GS-Ub (6-His-hMALT-1 residues 339-715 fused to ubiquitin) (Homo sapiens);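 also: in vitro MALT1 protease assay: enzyme preincubated with compound 30 min at room temperature, then cleavage of fluorogenic Ac-LVSR-AMC substrate (100 µM) followed by fluorescence every 15 min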
Sequence (Q9UDY8 with tags, fused parts or gaps limits assumed): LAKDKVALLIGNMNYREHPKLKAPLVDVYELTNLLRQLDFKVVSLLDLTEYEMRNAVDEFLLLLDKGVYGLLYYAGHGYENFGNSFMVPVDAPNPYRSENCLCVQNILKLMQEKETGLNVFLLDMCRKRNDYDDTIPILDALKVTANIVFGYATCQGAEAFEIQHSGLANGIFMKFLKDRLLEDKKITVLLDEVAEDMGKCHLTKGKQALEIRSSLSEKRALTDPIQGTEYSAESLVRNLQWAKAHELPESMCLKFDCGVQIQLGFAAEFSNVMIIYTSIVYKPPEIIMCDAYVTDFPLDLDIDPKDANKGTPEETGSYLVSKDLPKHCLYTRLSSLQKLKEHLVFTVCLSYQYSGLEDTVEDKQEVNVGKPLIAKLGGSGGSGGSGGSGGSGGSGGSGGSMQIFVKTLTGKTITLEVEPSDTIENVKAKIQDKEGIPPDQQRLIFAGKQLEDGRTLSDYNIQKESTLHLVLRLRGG
Test: biochemical
pIC50: −log10 of the molar value.
parameter_measured: pIC50

{"molecule": "CNS(=O)(=O)CCC(=O)N(C)[C@@H](c1ccc(NC2Cc3ccccc3C2(C)C)cc1)C(F)(F)F (single isomer, unassigned) [Example 62]", "parameter_measured": "pIC50", "numeric_value": 6.77}
{"molecule": "CNC(=O)N1CC(C(=O)N(C)[C@@H](c2ccc(NC3Cc4ccccc4C3(C)C)cc2)C(F)(F)F)C1 (single isomer, unassigned) [Example 74]", "parameter_measured": "pIC50", "numeric_value": 6.49}
{"molecule": "CN(C(=O)N1CCOCC1)[C@@H](c1ccc(N[C@H]2Cc3ccccc3C2(C)C)cc1)C(F)(F)F (single isomer, unassigned)", "parameter_measured": "pIC50", "numeric_value": 6.74}

###

Readings of IC50 for the listed compounds
Molecular target: UniProt:Q9UDY8
Assay: biochemical
parameter_measured: IC50 (nM)

{"compound": "CNC(=O)N1CCC12CC(C(=O)N(C)[C@@H](c1ccc(NC3Cc4ccccc4C3(C)C)cn1)C(F)(F)F)C2 (single isomer, unassigned) [Example 239]", "relation_qualifier": "=", "numeric_value": 150}
{"compound": "CN(C(=O)C1CCS(=O)(=O)CC1)[C@@H](c1ccc(NC2Cc3ccc(F)cc3C2)cn1)C(F)(F)F (single isomer, unassigned) [Example 259]", "relation_qualifier": "=", "numeric_value": 180}
{"compound": "CN(C(=O)[C@H]1C[C@@]2(COC(=O)N2)C1)[C@@H](c1ccc(NC2Cc3ccccc3C2(C)C)cn1)C(F)(F)F (single isomer, unassigned) [Example 208]", "relation_qualifier": "=", "numeric_value": 27}
{"compound": "CN1CCCC(C(=O)N(C)[C@@H](c2ccc(NC3Cc4ccccc4C3(C)C)cn2)C(F)(F)F)C1 (single isomer, unassigned) [Example 131]", "relation_qualifier": "=", "numeric_value": 260}
{"compound": "COc1cccc2c1CC(Nc1ccc([C@H](N(C)C(=O)C3CCS(=O)(=O)CC3)C(F)(F)F)nc1)C2 (single isomer, unassigned) [Example 177]", "relation_qualifier": "=", "numeric_value": 6600}
{"compound": "CN(C(=O)C1CCNC(=O)C1)[C@@H](c1ccc(N[C@H]2Cc3ccc(Cl)cc3C2)cn1)C(F)(F)F (single isomer, unassigned) [Example 313]", "relation_qualifier": "=", "numeric_value": 190}
{"compound": "CN1CC(C(=O)N(C)[C@@H](c2ccc(N[C@H]3Cc4ccccc4C3(C)C)cn2)C(F)(F)F)CCC1=O (single isomer, unassigned) [Example 253]", "relation_qualifier": "=", "numeric_value": 66}
{"compound": "CN(C(=O)C1CN2CCC1CC2)[C@@H](c1ccc(NC2Cc3ccccc3C2(C)C)cn1)C(F)(F)F (single isomer, unassigned) [Example 139]", "relation_qualifier": "=", "numeric_value": 370}
{"compound": "CN(C(=O)C1CCS(=O)(=O)CC1)[C@@H](c1ccc(NC2Cc3ccc(F)c(F)c3C2)cn1)C(F)(F)F (single isomer, unassigned) [Example 261]", "relation_qualifier": "=", "numeric_value": 82}
{"compound": "CN(C(=O)C1CCS(=O)(=O)CC1)[C@@H](c1ccc(NC2Cc3cc(Cl)ccc3C2(C)C)cc1)C(F)(F)F (single isomer, unassigned) [Example 153]", "relation_qualifier": "=", "numeric_value": 67}
{"compound": "CN(C(=O)C1CN2CCC1CC2)[C@@H](c1ccc(NC2Cc3ccccc3C2(C)C)nc1)C(F)(F)F (single isomer, unassigned) [Example 123]", "relation_qualifier": "=", "numeric_value": 870}
{"compound": "CN(C(=O)C1COCC(=O)N1)[C@@H](c1ccc(NC2Cc3ccccc3C2(C)C)cn1)C(F)(F)F (single isomer, unassigned) [Example 164]", "relation_qualifier": "=", "numeric_value": 33}
{"compound": "Cc1nnc(N2CC(C(=O)N(C)[C@@H](c3ccc(NC4Cc5ccc(Cl)c(F)c5C4)cn3)C(F)(F)F)C2)o1 (single isomer, unassigned) [Example 365]", "relation_qualifier": "=", "numeric_value": 3640}
{"compound": "CN(C(=O)[C@H]1CCC(=O)NC1)[C@@H](c1ccc(NC2Cc3ccc(Cl)c(F)c3C2)nc1)C(F)(F)F (single isomer, unassigned) [Example 388]", "relation_qualifier": "=", "numeric_value": 490}
{"compound": "CN(C(=O)c1cc[nH]c(=O)c1)C(c1ccc(NC2Cc3ccccc3C2(C)C)cn1)C(F)(F)F (single isomer, unassigned) [Example 99]", "relation_qualifier": ">", "numeric_value": 3000}
{"compound": "CN(C(=O)[C@H]1CNC(=O)C1)[C@@H](c1ccc(NC2Cc3ccc(Cl)c(Cl)c3C2)nc1)C(F)(F)F (single isomer, unassigned) [Example 346]", "relation_qualifier": "=", "numeric_value": 1100}
{"compound": "CN(C(=O)C1CCS(=O)(=O)CC1)[C@@H](c1ccc(NC2Cc3ccc(C4CC4)cc3C2)cn1)C(F)(F)F (single isomer, unassigned) [Example 307]", "relation_qualifier": "=", "numeric_value": 220}
{"compound": "CN(C(=O)C1CN(C(=O)C2COC2)C1)[C@@H](c1ccc(NC2Cc3ccc(Cl)c(F)c3C2)cn1)C(F)(F)F (single isomer, unassigned) [Example 371]", "relation_qualifier": "=", "numeric_value": 75}
{"compound": "CN(C(=O)C1CNC1)C(c1ccc(NC2Cc3ccccc3C2(C)C)nc1)C(F)(F)F (single isomer, unassigned) [Example 87]", "relation_qualifier": "=", "numeric_value": 470}
{"compound": "CN(C(=O)C1CCS(=O)(=O)CC1)[C@@H](c1ccc(NC2Cc3ccc(Cl)c(C4CC4)c3C2)cn1)C(F)(F)F (single isomer, unassigned) [Example 305]", "relation_qualifier": "=", "numeric_value": 300}
{"compound": "CN(C(=O)C1CCS(=O)(=O)CC1)[C@@H](c1ccc(NC2Cc3ccc(F)c(Cl)c3C2)cn1)C(F)(F)F (single isomer, unassigned) [Example 266]", "relation_qualifier": "=", "numeric_value": 1600}
{"compound": "CN(C(=O)C1CCS(=O)(=O)CC1)[C@@H](c1ccc(NC2Cc3cccc(Cl)c3C2)cn1)C(F)(F)F (single isomer, unassigned) [Example 263]", "relation_qualifier": "=", "numeric_value": 61}

Values from patent US20260184687A1
